Quick reference: selectivity ratio of the listed items.
Assay: Selectivity index, ratio of CC50 for mock-infected human MT4 cells to EC50 for HIV1 infected in human MT4 cells
Assay type: toxicity, cell-based
Settings: MT4 cells (mock-infected and HIV1-infected), read-out: Ratio CC50/EC50

These solved cases illustrate the format of a correct answer.
1. O=C1Nc2ccc(Cl)cc2S(=O)(=O)n2cccc21 : > 300
2. CN1C(=O)c2cccn2S(=O)(=O)c2cc(Cl)ccc21 : > 600

Exam item: Form field: reported selectivity ratio of CC(C)c1c(COC(N)=O)cn(Cc2ccncc2)c1Sc1cc(Cl)cc(Cl)c1
Marked response: > 1670

Exam item: Form field: reported selectivity ratio of C=CCN1C(=O)c2cccn2S(=O)(=O)c2cc(Cl)ccc21
Marked response: > 81

Exam item: Form field: reported selectivity ratio of CC(C)c1c(CO)cn(Cc2ccncc2)c1Sc1cc(Cl)cc(Cl)c1
Marked response: > 6670

Exam item: Form field: reported selectivity ratio of Cc1ccnc2c1NC(=O)c1cccnc1N2C1CC1
Marked response: > 800

Exam item: Form field: reported selectivity ratio of C/C=C/CN1C(=O)c2cccn2S(=O)(=O)c2cc(Cl)ccc21
Marked response: > 73
